target: HuR (UniProt Q15717 1-326); test: fluorescence anisotropy
Sequence (Q15717 whole entry): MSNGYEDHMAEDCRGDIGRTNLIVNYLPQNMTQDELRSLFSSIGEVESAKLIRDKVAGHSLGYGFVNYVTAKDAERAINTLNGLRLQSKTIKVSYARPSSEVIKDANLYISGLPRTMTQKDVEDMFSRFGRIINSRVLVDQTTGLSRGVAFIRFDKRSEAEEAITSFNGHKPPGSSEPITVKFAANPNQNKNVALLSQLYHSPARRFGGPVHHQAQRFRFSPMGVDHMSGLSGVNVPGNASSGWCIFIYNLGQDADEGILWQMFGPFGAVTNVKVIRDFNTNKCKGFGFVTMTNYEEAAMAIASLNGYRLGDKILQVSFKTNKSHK
PROPERTY_MEASURED: Kd (nM)
Answers are plain numbers, in nM.

Would you kindly share the measured Kd for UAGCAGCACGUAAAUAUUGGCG (ssRNA) [miR-16 (mature, 5'TMR-labeled)] ? 120
